Measured values drawn from patent EP4471048A1 for this set.

# target-or-system: human IL-23R (Homo sapiens)
# Sequence (Q5VWK5 22-629): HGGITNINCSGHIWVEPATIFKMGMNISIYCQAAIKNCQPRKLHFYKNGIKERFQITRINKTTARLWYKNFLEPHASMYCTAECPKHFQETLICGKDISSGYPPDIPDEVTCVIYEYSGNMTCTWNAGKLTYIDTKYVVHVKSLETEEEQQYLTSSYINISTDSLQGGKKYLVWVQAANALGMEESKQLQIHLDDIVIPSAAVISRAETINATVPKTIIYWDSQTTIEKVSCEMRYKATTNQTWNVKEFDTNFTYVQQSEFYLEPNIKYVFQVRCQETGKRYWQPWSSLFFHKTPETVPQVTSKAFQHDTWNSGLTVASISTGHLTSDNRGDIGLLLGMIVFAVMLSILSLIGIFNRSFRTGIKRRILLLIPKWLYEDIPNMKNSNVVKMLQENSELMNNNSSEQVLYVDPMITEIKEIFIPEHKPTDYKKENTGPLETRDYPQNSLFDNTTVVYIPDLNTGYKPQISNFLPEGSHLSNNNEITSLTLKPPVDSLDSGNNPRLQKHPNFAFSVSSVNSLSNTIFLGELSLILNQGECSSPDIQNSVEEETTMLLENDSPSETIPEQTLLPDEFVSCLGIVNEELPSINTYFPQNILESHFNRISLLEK
# method-summary: biochemical
# measurement-context: read-out: % displacement (hIL-23R NIuc)
Where a SMILES comes first, the peptide text is derived from it. Bridges are numbered along the chain shown (N, C = ends). [ ]: non-standard residue; d: D form. 2Nal = N[C@@H](Cc1ccc2ccccc2c1)C(=O)O; AEF = NCCOc1ccc(C[C@H](N)C(=O)O)cc1; 3Pal = N[C@@H](Cc1cccnc1)C(=O)O; Lys(Me) = CNCCCC[C@H](N)C(=O)O; αMeL = CC(C)C[C@](C)(N)C(=O)O; Dab = NCC[C@H](N)C(=O)O
Measured Emax of individual entries
Return type: number; implicit unit %.

Recorded results for 5 compounds are shown here.
compound	unit-descriptor	Emax
CC[C@H](C)[C@@H]1NC(=O)[C@@H]2CCCCNC(=O)CC[C@@H](C(=O)NCC(=O)N[C@H](Cc3cccnc3)C(N)=O)NC(=O)[C@](C)(C(C)C)NC(=O)[C@H](Cc3ccc4ccccc4c3)NC(=O)[C@H](Cc3ccc(C)cc3)NC(=O)[C@H](CCC(=O)N2)NC(=O)[C@H](CCC(N)=O)NC(=O)[C@H](Cc2c[nH]c3ccccc23)NC(=O)[C@H](C(C)C)NC1=O [Compound 19]	%	103
CC[C@H](C)[C@@H]1NC(=O)[C@@H]2CCC(=O)N(C)CCCC[C@@H](C(=O)N[C@@H](CCN)C(=O)N[C@@H](Cc3cccnc3)C(=O)NC)NC(=O)[C@](C)(CC(C)C)NC(=O)[C@H](Cc3ccc4ccccc4c3)NC(=O)[C@H](Cc3ccc(OCCN)cc3)NC(=O)[C@H](CCC(=O)N2)NC(=O)[C@H](CCC(N)=O)NC(=O)[C@H](Cc2c[nH]c3ccccc23)NC(=O)[C@H](C(C)C)NC1=O [Compound 74] (EIVWQE[AEF][2Nal][αMeL][Lys(Me)][Dab][3Pal]-NHMe; lactam 1-10, N-6)	%	99
CC(C)C[C@]1(C)NC(=O)[C@H](Cc2ccc3ccccc3c2)NC(=O)[C@H](Cc2ccc(OCCN)cc2)NC(=O)[C@@H]2CCC(=O)N[C@@H](CCCCNC(=O)CC[C@@H](C(=O)N[C@@H](CCN)C(=O)N[C@@H](Cc3cccnc3)C(N)=O)NC1=O)C(=O)N[C@@H]([C@@H](C)O)C(=O)N[C@@H](C(C)C)C(=O)N[C@@H](Cc1c[nH]c3ccccc13)C(=O)N[C@@H](CCC(N)=O)C(=O)N2 [Compound 2] (KTVWQE[AEF][2Nal][αMeL]E[Dab][3Pal]-NH2; lactam 1-10, N-6)	%	100
CNC(=O)[C@H](Cc1cccnc1)NC(=O)[C@H](CCN)NC(=O)[C@@H]1CCC(=O)NCCCC[C@H]2CC(=O)NCC(=O)N[C@@H](Cc3c[nH]c4ccccc34)C(=O)N[C@@H](CCC(N)=O)C(=O)N[C@@H](CCC(=O)N2)C(=O)N[C@@H](Cc2ccc(OCCN)cc2)C(=O)N[C@@H](Cc2ccc3ccccc3c2)C(=O)N[C@@](C)(CC(C)C)C(=O)N1 [Compound 99]	%	101
CC(C)[C@@H]1NC(=O)[C@H]([C@@H](C)O)NC(=O)[C@@H]2CCCCNC(=O)CC[C@@H]3NC(=O)[C@H](CCNC(=O)[C@H](Cc4cccnc4)NC(=O)[C@H](CCN)NC3=O)NC(=O)[C@H](Cc3ccc4ccccc4c3)NC(=O)[C@H](Cc3ccc(OCCN)cc3)NC(=O)[C@H](CCC(=O)N2)NC(=O)[C@H](CCC(N)=O)NC(=O)[C@H](Cc2c[nH]c3ccccc23)NC1=O [Compound 76] (KTVWQE[AEF][2Nal][Dab]E[Dab][3Pal]; lactam 1-10, 9-C, N-6)	%	92

Ask: State Emax on human IL-23R (Homo sapiens). Entry: CC[C@H](C)[C@H]1CC(=O)N[C@@H](Cc2c[nH]c3ccccc23)C(=O)N[C@@H](CCC(N)=O)C(=O)N[C@H]2CCC(=O)N[C@@H](CCCCNC(=O)CC[C@@H](C(=O)N[C@@H](CCN)C(=O)N[C@@H](Cc3cccnc3)C(=O)NC)NC(=O)[C@](C)(CC(C)C)NC(=O)[C@H](Cc3ccc4ccccc4c3)NC(=O)[C@H](Cc3ccc(OCCN)cc3)NC2=O)C(=O)N1 [Compound 96]
Reply: 91
